Reported Mean value WT values are given for each entry in this list.
# assayed_system: Oatp1b2 (Mus musculus, UniProt Q9JJL3)
# Sequence (Q9JJL3 whole entry): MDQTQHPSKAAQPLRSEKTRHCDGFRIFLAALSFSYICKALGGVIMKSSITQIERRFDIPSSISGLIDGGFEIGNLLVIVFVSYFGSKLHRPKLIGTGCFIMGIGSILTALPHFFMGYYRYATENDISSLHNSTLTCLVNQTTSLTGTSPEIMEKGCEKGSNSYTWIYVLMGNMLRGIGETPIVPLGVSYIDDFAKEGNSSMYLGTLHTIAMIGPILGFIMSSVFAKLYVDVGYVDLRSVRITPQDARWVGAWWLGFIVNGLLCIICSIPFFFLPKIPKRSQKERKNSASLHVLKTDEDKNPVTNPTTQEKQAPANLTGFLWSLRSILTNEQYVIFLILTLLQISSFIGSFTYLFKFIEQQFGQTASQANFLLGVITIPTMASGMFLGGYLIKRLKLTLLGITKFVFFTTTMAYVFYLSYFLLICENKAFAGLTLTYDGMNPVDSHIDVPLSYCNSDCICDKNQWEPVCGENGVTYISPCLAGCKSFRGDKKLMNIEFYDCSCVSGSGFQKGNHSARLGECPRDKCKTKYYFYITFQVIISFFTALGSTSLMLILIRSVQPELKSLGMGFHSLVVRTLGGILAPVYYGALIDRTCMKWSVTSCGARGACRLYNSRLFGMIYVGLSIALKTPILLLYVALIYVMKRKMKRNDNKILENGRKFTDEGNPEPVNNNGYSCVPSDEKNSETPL
# assay_explanation: Untargeted metabolomics of plasma from untreated wild-type and Oatp1b2(−/−) mice
# test_settings: plasma of untreated wild-type mice; raw area counts rescaled to median = 1
Where a name gives a salt, the structure may show the parent alone.

                                 molecule  obs_value
0  CSC=CC(O)C(O)C(=O)O (stereo not shown)       .915

(Q) What measured Mean value WT goes with O=C(O)C1CCCCN1 (stereo not shown) [pipecolate] ?
(A) .938

(Q) What measured Mean value WT goes with `OC[C@@H](O)[C@@H](O)CO` ?
(A) .927

(Q) What measured Mean value WT goes with CC(=O)N[C@@H](CC[S+](C)[O-])C(=O)O (stereo partly shown) [N-acetylmethionine sulfoxide] ?
(A) .931

(Q) What measured Mean value WT goes with O=C1CC(C(=O)O)C(C(=O)O)O1 (stereo not shown) ?
(A) .884

(Q) What measured Mean value WT goes with CCCCCCCC/C=C\CCCCCCCC(N)=O [oleamide] ?
(A) .886

(Q) What measured Mean value WT goes with `CCCCC(=O)NCC(=O)O` ?
(A) .838

(Q) What measured Mean value WT goes with `CCCCCCCC/C=C\CCCCCCCC(=O)O[C@H](COC(=O)CCCCCCCCCCCCCCC)COP(=O)(O)OCCN` ?
(A) .847

(Q) What measured Mean value WT goes with C=Cc1ccc(OS(=O)(=O)O)cc1 [4-vinylphenol sulfate] ?
(A) .847

(Q) What measured Mean value WT goes with O=C(O)[C@H]1OC(O)[C@H](O)[C@@H](O)[C@@H]1O (mixture of isomers) [glucuronate] ?
(A) .500
